Test: LNP zeta potential (ZetaSizer Pro)
Type: physicochemical
Conditions: same LNPs, Table 4, pH 7
assay metric: Zeta Potential mV, pH 7 (mV)

Use these answered entries as a reference point.
# compound, unit abbreviation, val
records = [
    ("CCCCC/C=C\\CCCC/C=C\\CCCCC(=O)OC[C@H](CCN(C)C)OC(=O)CCCC/C=C\\CCCC/C=C\\CCCCC [UO-1]", "mV", 2.3),
    ("CCCCC/C=C\\CCCC/C=C\\CCCCC(=O)OC[C@H](CCN(CC)CC)OC(=O)CCCC/C=C\\CCCC/C=C\\CCCCC [AKG-UO1A]", "mV", "−0.9"),
]

[P] CCCCC/C=C\C/C=C\CCCCCCCC(=O)OC[C@H](CCN(C)C)OC(=O)CCCCCCC/C=C\C/C=C\CCCCC [Compound O-11769, reference compound]
[Q] CCCCCCCC/C=C\CCCCCCCC(=O)OC[C@H](CCN(C)C)OC(=O)CCCCCCC/C=C\CCCCCCCC [AKG-DM2-OA]
[R] CCCCCCCC/C=C\CCCCCCCC(=O)OC[C@H](CN(C)C)OC(=O)CCCCCCC/C=C\CCCCCCCC [DODAP, reference compound]
Sort the compounds on Zeta Potential mV, pH 7; start with the lowest figure. Output spec: a listing of the labels in the requested order.
R, Q, P
(R: −0.7 mV, Q: 2.2 mV, P: 4.1 mV)

====

Experiment: mRNA encapsulation efficiency by Ribogreen fluorescent binding dye
Type: physicochemical
Settings: same LNPs, Table 3
assay metric: % Encapsulation ± SD (%)

# compound, % Encapsulation ± SD / %
rows = [
    ("CCCCC/C=C\\CCCC/C=C\\CCCCCC1(CCCCC/C=C\\CCCC/C=C\\CCCCC)OC[C@H](CCCN(C)C)O1", 88.9),
    ("CCCCC/C=C\\C/C=C\\CCCCCCCCC1(CCCCCCCC/C=C\\C/C=C\\CCCCC)OCC(CCN(C)C)O1 (stereo not shown) [KC2, reference compound]", 68.2),
    ("CCCCC/C=C\\C/C=C\\CCCCCCCCC1(CCCCCCCC/C=C\\C/C=C\\CCCCC)OCC(CCCN(C)C)O1 (stereo not shown) [KC3, reference compound]", 87.0),
    ("CCCCC/C=C\\CCCC/C=C\\CCCCCC1(CCCCC/C=C\\CCCC/C=C\\CCCCC)OC[C@H](CCN(C)C)O1", 88.9),
]

====

Assay: LNP particle size and polydispersity (ZetaSizer)
Format: physicochemical
Settings: mCherry mRNA LNP, 50 mol % ICL, N/P 5, DSPC 10, cholesterol 38.5, PEG-DMG 1.5 mol %; Table 4
assay metric: Particle Size (nm)

# compound, val
data = [
    ("CCCCC/C=C\\CCCC/C=C\\CCCCC(=O)OC[C@H](CCN(C)C)OC(=O)CCCC/C=C\\CCCC/C=C\\CCCCC", 98.0),
    ("CCCCCCCC/C=C\\CCCCCCCC(=O)OC[C@H](CCN(C)C)OC(=O)CCCCCCC/C=C\\CCCCCCCC", 77.6),
    ("CCCCC/C=C\\CCCC/C=C\\CCCCC(=O)OC[C@H](CCN(CC)CC)OC(=O)CCCC/C=C\\CCCC/C=C\\CCCCC", 84.4),
    ("CCCCC/C=C\\C/C=C\\CCCCCCCC(=O)OC[C@H](CCN(C)C)OC(=O)CCCCCCC/C=C\\C/C=C\\CCCCC [Compound O-11769, reference compound]", 83.0),
    ("CCCCCCCC/C=C\\CCCCCCCC(=O)OC[C@H](CN(C)C)OC(=O)CCCCCCC/C=C\\CCCCCCCC [DODAP, reference compound]", 69.8),
]

====

Assay: LNP zeta potential (ZetaSizer Pro)
Format: physicochemical
Settings: same LNPs, Table 4, pH 5
assay metric: Zeta Potential mV, pH 5 (mV)

Use these answered entries as a reference point.
# compound, Zeta Potential mV, pH 5 (mV)
data = [
    ("CCCCC/C=C\\CCCC/C=C\\CCCCC(=O)OC[C@H](CCN(C)C)OC(=O)CCCC/C=C\\CCCC/C=C\\CCCCC", 21.9),
    ("CCCCCCCC/C=C\\CCCCCCCC(=O)OC[C@H](CCN(C)C)OC(=O)CCCCCCC/C=C\\CCCCCCCC", 19.1),
]

[I] CCCCC/C=C\C/C=C\CCCCCCCC(=O)OC[C@H](CCN(C)C)OC(=O)CCCCCCC/C=C\C/C=C\CCCCC [Compound O-11769, reference compound]
[II] CCCCC/C=C\CCCC/C=C\CCCCC(=O)OC[C@H](CCN(CC)CC)OC(=O)CCCC/C=C\CCCC/C=C\CCCCC
[III] CCCCCCCC/C=C\CCCCCCCC(=O)OC[C@H](CN(C)C)OC(=O)CCCCCCC/C=C\CCCCCCCC [DODAP, reference compound]
Please rank these compounds by Zeta Potential mV, pH 5 in descending order. Output spec: a listing of the labels in the requested order.
II, I, III
(II: 28.0 mV, I: 17.1 mV, III: 10.2 mV)

====

Test: mRNA encapsulation efficiency by Ribogreen fluorescent binding dye
Type: physicochemical
Details: same LNPs, Table 4
assay metric: Encapsulation Efficiency (%)

# compound, Encapsulation Efficiency (%)
measured = [
    ("CCCCC/C=C\\CCCC/C=C\\CCCCC(=O)OC[C@H](CCN(CC)CC)OC(=O)CCCC/C=C\\CCCC/C=C\\CCCCC", 77.5),
    ("CCCCCCCC/C=C\\CCCCCCCC(=O)OC[C@H](CCN(C)C)OC(=O)CCCCCCC/C=C\\CCCCCCCC", 64.9),
    ("CCCCCCCC/C=C\\CCCCCCCC(=O)OC[C@H](CN(C)C)OC(=O)CCCCCCC/C=C\\CCCCCCCC [DODAP, reference compound]", 83.4),
    ("CCCCC/C=C\\CCCC/C=C\\CCCCC(=O)OC[C@H](CCN(C)C)OC(=O)CCCC/C=C\\CCCC/C=C\\CCCCC", 75.4),
    ("CCCCC/C=C\\C/C=C\\CCCCCCCC(=O)OC[C@H](CCN(C)C)OC(=O)CCCCCCC/C=C\\C/C=C\\CCCCC [Compound O-11769, reference compound]", 87.5),
]

====

Experiment: Accelerated oxidation with H2O2/Fe(III)Cl, main lipid peak by UHPLC-CAD
Assay type: physicochemical
Conditions: ICL lipid suspensions, 1% H2O2, 100 μM Fe(III)Cl, 37° C., 72 h
assay metric: % of parent lipid peak at time 0, 72 h (%)

Use these answered entries as a reference point.
# compound, % of parent lipid peak at time 0, 72 h, %
records = [
    ("CCCCC/C=C\\CCCC/C=C\\CCCCC(=O)OC[C@H](CCN(C)C)OC(=O)CCCC/C=C\\CCCC/C=C\\CCCCC [UO-1]", 65),
    ("CCCCC/C=C\\C/C=C\\CCCCCCCCC1(CCCCCCCC/C=C\\C/C=C\\CCCCC)OCC(CCN(C)C)O1 (stereo not shown) [KC2, reference compound]", 0),
]

[I] CCCCC/C=C\C/C=C\CCCCCCCCC1(CCCCCCCC/C=C\C/C=C\CCCCC)OCC(CCCN(C)C)O1 (stereo not shown) [KC3, reference compound]
[II] CCCCC/C=C\C/C=C\CCCCCCCC(=O)OC[C@H](CCN(C)C)OC(=O)CCCCCCC/C=C\C/C=C\CCCCC [Compound O-11769, reference compound]
Hi, I'm comparing I with II and wondering which one has the bigger number for % of parent lipid peak at time 0, 72 h. Any idea? The response must carry the label of the picked entry.
II

====

Test: LNP particle size and polydispersity (ZetaSizer)
Type: physicochemical
Settings: same LNPs, Table 3
assay metric: Polydispersity Index PDI

[P] CCCCC/C=C\CCCC/C=C\CCCCCC1(CCCCC/C=C\CCCC/C=C\CCCCC)OC[C@H](CCN(C)C)O1
[Q] CCCCC/C=C\C/C=C\CCCCCCCCC1(CCCCCCCC/C=C\C/C=C\CCCCC)OCC(CCCN(C)C)O1 (stereo not shown) [KC3, reference compound]
[R] CCCCC/C=C\C/C=C\CCCCCCCCC1(CCCCCCCC/C=C\C/C=C\CCCCC)OCC(CCN(C)C)O1 (stereo not shown) [KC2, reference compound]
[S] CCCCC/C=C\CCCC/C=C\CCCCCC1(CCCCC/C=C\CCCC/C=C\CCCCC)OC[C@H](CCCN(C)C)O1
With the 4 molecules above, produce a list ordered by ascending Polydispersity Index PDI. Output spec: a listing of the labels in the requested order.
R, S, P, Q

====

Experiment: LNP particle size and polydispersity (ZetaSizer)
Format: physicochemical
Conditions: mCherry mRNA LNP, 50 mol % ICL, N/P 5, DSPC 10, cholesterol 38.5, PEG-DMG 1.5 mol %; Table 3
assay metric: Particle Size (nm)

# compound, unit abbreviation, Particle Size (nm)
rows = [
    ("CCCCC/C=C\\CCCC/C=C\\CCCCCC1(CCCCC/C=C\\CCCC/C=C\\CCCCC)OC[C@H](CCCN(C)C)O1", "nm", 91.6),
    ("CCCCC/C=C\\C/C=C\\CCCCCCCCC1(CCCCCCCC/C=C\\C/C=C\\CCCCC)OCC(CCN(C)C)O1 (stereo not shown) [KC2, reference compound]", "nm", 93.7),
]

[a] CCCCC/C=C\CCCC/C=C\CCCCCC1(CCCCC/C=C\CCCC/C=C\CCCCC)OC[C@H](CCN(C)C)O1
[b] CCCCC/C=C\C/C=C\CCCCCCCCC1(CCCCCCCC/C=C\C/C=C\CCCCC)OCC(CCCN(C)C)O1 (stereo not shown) [KC3, reference compound]
Between the entries labeled a and b , whose measured Particle Size (nm) is lower? The response must carry the label of the picked entry.
a
(a: 70.7 nm, b: 101.5 nm)
